Data origin: patent US20170052184A1

assayed.target: T1, HCV Core1-169 recombinant antigen (hepatitis C virus (HCV-1), UniProt P26664 1-169)
T1 sequence: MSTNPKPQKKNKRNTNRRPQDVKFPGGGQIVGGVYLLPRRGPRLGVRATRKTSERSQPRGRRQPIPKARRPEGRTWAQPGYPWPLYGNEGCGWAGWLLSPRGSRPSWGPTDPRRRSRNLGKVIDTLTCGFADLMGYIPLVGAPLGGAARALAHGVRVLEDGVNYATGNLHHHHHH
experimental.details: sandwich EIA, 25 ng/ml core1-169; capture mAb 208A-207-271
recorded.metric: OD492 nm

[[record]]
binder = "208B-612-226 monoclonal antibody (antibody, V domains shown) VH: EVQLQQSGPELVKPGASVKMSCKASGYRFTSYVMHWVRQKPGQGLEWIGYIDPHNDDTKYSEKFRGKATLTSDKSSTTAYMELSSLTSEDSAVYYCVRYSYDRDYSPMDYWGQGTSVTVSS VL: QIVLTQSPTLMSASPGEKVTMTCSASSTVTYIYWYQQKPGSSPRLWMYDTFNLVSGVPARFSGSRSGTSYFLTISSMEGEDAATYYCQQYSDSPYTFGGGTKLEIKR"
data_value = "0.24 OD492"

